target: DPP4; assay: enzyme inhibition kinetics, prolyl peptidase activity of DPP4 with Gly-Pro-pNA, time progress curves (FIG. 1E)
Sequence (P27487 whole entry): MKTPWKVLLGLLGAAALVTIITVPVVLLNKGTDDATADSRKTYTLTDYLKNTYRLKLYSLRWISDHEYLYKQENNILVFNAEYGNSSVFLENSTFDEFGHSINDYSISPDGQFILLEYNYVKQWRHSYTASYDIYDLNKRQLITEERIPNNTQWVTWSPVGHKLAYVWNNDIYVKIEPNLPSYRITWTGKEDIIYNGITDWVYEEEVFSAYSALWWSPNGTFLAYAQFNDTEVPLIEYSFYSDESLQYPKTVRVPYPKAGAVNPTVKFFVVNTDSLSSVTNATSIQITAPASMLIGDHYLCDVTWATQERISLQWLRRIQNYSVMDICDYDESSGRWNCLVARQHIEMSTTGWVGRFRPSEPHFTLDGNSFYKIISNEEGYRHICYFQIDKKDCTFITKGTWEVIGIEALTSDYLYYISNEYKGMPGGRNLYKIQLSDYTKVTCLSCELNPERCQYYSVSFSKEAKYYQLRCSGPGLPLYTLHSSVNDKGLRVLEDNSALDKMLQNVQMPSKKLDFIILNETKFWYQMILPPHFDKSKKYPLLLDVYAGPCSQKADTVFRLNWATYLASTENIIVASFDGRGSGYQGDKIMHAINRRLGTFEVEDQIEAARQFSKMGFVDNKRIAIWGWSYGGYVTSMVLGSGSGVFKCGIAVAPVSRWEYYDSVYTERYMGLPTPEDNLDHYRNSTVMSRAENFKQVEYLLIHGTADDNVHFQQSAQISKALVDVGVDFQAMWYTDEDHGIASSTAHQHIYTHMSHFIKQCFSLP
Where no end group is shown, it is not given here.
observed-property: pKi
pKi is a log-scale quantity: -log10 of the concentration expressed in molar.

Ask: # lookup: pKi of CDMWERVSRC (also: cyclic peptide, mode of cyclisation not given here) [cyclic peptide CDMWERVSRC]
Reply: 4.40
